Experiment: chemical genetic growth profiling, strain panel (AID 1159580);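 also: tested at 20 µM; growth read once vehicle control cultures reached saturation at 30 °C; lower values mean less growth of the strain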
Settings: S. cerevisiae deletion strains, growth OD, locus YOR231W, strain MKK1, hits give low values
Out of some 5,500 compounds screened, about 2,000 (36%) were called active. Roughly 18% stayed inconclusive and do not appear here. The list shows a part of the results.
Note to self: use T only for normalized growth readings below 0.9; a reading exactly at 0.9 still gets F.

Sample answers from the record:
CC1=CC(=O)N(c2ccc(OC(F)(F)F)cc2)C1=O	T
COC(=O)[C@@H]1OC(=O)C2OC23[C@@]1(C)CCC1[C@]2(C)C(C[C@@H](O)[C@]13C)C(C)(C)[C@H](OC(C)=O)C[C@@H]2OC(C)=O (stereo not given in full)	F
OC[C@H]1O[C@@H](n2cnc3c(NCc4ccco4)ncnc32)[C@H](O)[C@@H]1O	F
C[C@@H](Nc1ncnc2sc3c(c12)CCCC3)c1ccccc1	T

Request: Could you please tell me whether normalized growth recorded for CC(=O)Oc1ccc2c(c1)CCC1C2CC[C@]2(C)C(=O)CCC12 (stereo not given in full) is less than 0.9?
Result: F
